Experiment Description: melting temperature; fluorescence melt of hairpins on a sequencing array, two-state fit, raised by 9.35 °C to match UV melts
Condition Summary: sodium 0.088 M
Classification field: class 1 = Tm at or over 60 °C; class 0 = Tm under 60 °C.

- Seq Text: "GCAACGCGAAAGCCTCGC ((.(.((....)).).))"
  Group: "class 0"
- Seq Text: "GATCCCTTTGGGATC ((((((...))))))"
  Group: "class 1"
- Seq Text: "GTGGGCTCGAAAGAGCAC (((..(((....))))))"
  Group: "class 1"
- Seq Text: "GTGCTCGGAAACGAACAC (((.(((....))).)))"
  Group: "class 0"

Item GATCCCTCTCGGGATC ((((((....)))))) with Tm of 60 °C or above?
class 1

----------
# folding enthalpy values compiled below
Experiment Description: folding enthalpy; higher = less favourable; fluorescence melt of hairpins on a sequencing array, two-state fit
Condition Summary: sodium 0.088 M
Reply with just the number (in kJ/mol).

Illustrative cases are given below, each with its answer.
- Seq Text: "GGTGTCGCGAAAGCGACC (((..(((....))))))"
  Output Unit: "kJ/mol"
  folding enthalpy: -32.4
- Seq Text: "GCCCCCCGAAAGGGAGGC (((.(((....))).)))"
  Output Unit: "kJ/mol"
  folding enthalpy: -124
- Seq Text: "GATACTGGAAACGGTATC (((((.(....).)))))"
  Output Unit: "kJ/mol"
  folding enthalpy: -127
- Seq Text: "GATCTACCATTAGATC ((((((....))))))"
  Output Unit: "kJ/mol"
  folding enthalpy: -139

I am curious: what folding enthalpy value has been reported for GTGCTGCCGAAAGGCCAC (((..(((....)))))) ?
-48

I am curious: what folding enthalpy value has been reported for GATCGACCTCTCGATC ((((((....)))))) ?
-150

I am curious: what folding enthalpy value has been reported for GCGTCAAGACGC ((((....)))) ?
-125

I am curious: what folding enthalpy value has been reported for GCAAGGCGAAAGCATCGC ((.(.((....)).).)) ?
-60.2

I am curious: what folding enthalpy value has been reported for GATCACTCTTGTGATC ((((((....)))))) ?
-161

I am curious: what folding enthalpy value has been reported for GAATACGAAAGTAGATTC ((((((....)))..))) ?
-84.9

I am curious: what folding enthalpy value has been reported for GAGATGCCGAAAGGCCTC (((..(((....)))))) ?
-42.4

I am curious: what folding enthalpy value has been reported for GTAAGTGGAAACACTTAC (((((((....))))))) ?
-189

----------
Experiment Description: melting temperature; fluorescence melt of hairpins on a sequencing array, two-state fit, raised by 9.35 °C to match UV melts
Condition Summary: sodium 0.088 M
# Tm values compiled below
Reply with just the number (in °C).

Illustrative cases are given below, each with its answer.
- Seq Text: "GCCGGGCGAAAGCTCAGC ((.(.((....)).).))"
  Tm (°C): 44.4
- Seq Text: "GATCTCACTCGAGATC ((((((....))))))"
  Tm (°C): 52.1
- Seq Text: "GGTATGGGAAACCACACC (((.(((....))).)))"
  Tm (°C): 38.6
- Seq Text: "GCAGTCGCGAAAGCGTGC (((..(((....))))))"
  Tm (°C): 46.1
- Seq Text: "GGTAACGAAAGTTTAACC ((((((....)))..)))"
  Tm (°C): 33.8

I am curious: what Tm value has been reported for GCCGGCGAAAGCCAGGGC ((((((....)))..))) ?
63.1

----------
# Tm values compiled below
Experiment Description: melting temperature; fluorescence melt of hairpins on a sequencing array, two-state fit, raised by 9.35 °C to match UV melts
Condition Summary: sodium 0.088 M
Reply with just the number (in °C).

Illustrative cases are given below, each with its answer.
- Seq Text: "GCCGCGGCGAAAGCCGGC (((..(((....))))))"
  Tm (°C): 68.6
- Seq Text: "GCCTCGCGAAAGCGGGC (((.(((....))))))"
  Tm (°C): 67.7
- Seq Text: "GGCTGCTCGAAAGAGGCC (((..(((....))))))"
  Tm (°C): 43.8

I am curious: what Tm value has been reported for GGTCACGGAAACGTGGCC ((.((((....)))).)) ?
64.9

I am curious: what Tm value has been reported for GGGTCTGGAAACGGACCC (((((.(....).))))) ?
59.3

I am curious: what Tm value has been reported for GGATGTCGAAAGACGTCC (((.(((....))).))) ?
61

I am curious: what Tm value has been reported for GGATACGAAAGTATTTCC ((((((....)))..))) ?
28.1

I am curious: what Tm value has been reported for AGGCTGAAAAGCCT (((((....))))) ?
62.6

I am curious: what Tm value has been reported for GTCCCGCGAAAGCGGAC (((.(((....)))))) ?
56.3

I am curious: what Tm value has been reported for GACCTGACGAAAGTCGTC (((..(((....)))))) ?
35.9

I am curious: what Tm value has been reported for GCTACTGGAAACGGTAGC (((((.(....).))))) ?
50.2

I am curious: what Tm value has been reported for GCGGTGCCCCGC ((((....)))) ?
54.3

----------
Experiment Description: melting temperature; fluorescence melt of hairpins on a sequencing array, two-state fit, raised by 9.35 °C to match UV melts
Condition Summary: sodium 0.088 M
Experimental Readout: Tm (°C)
Reply with just the number (in °C).

Illustrative cases are given below, each with its answer.
- Seq Text: "GGTCCAGAAATGGACC ((((((....))))))"
  Output Unit: "°C"
  Tm: 64
- Seq Text: "GATCTCGTTGAGATC ((((((...))))))"
  Output Unit: "°C"
  Tm: 54.9
- Seq Text: "GATGCAGGAAACCGCATC (((((.(....).)))))"
  Output Unit: "°C"
  Tm: 49.9
- Seq Text: "GATCTTCCATAAGATC ((((((....))))))"
  Output Unit: "°C"
  Tm: 43.4
- Seq Text: "GCGCTAGGAAACTAGTGC ((.((((....)))).))"
  Output Unit: "°C"
  Tm: 53.3

Now turn to the next sequence.
I am curious: what Tm value has been reported for GGGCTCGAAAGAGGACCC ((((((....)))..))) ?
49.5

----------
Experiment Description: melting temperature; fluorescence melt of hairpins on a sequencing array, two-state fit, raised by 9.35 °C to match UV melts
Condition Summary: sodium 0.088 M
Experimental Readout: Tm

Illustrative cases are given below, each with its answer.
- Seq Text: "GTCCCCTCGAAAGAGGAC (((..(((....))))))"
  Tm: "33.6 °C"
- Seq Text: "GTCTAACGAAAGTTGGAC (((.(((....))).)))"
  Tm: "52 °C"
- Seq Text: "GACGACCCGAAAGGGGTC (((..(((....))))))"
  Tm: "42.3 °C"

I am curious: what Tm value has been reported for GTGATCGGAAACAATCAC (((((.(....).))))) ?
36.3 °C

I am curious: what Tm value has been reported for GCGATTAATCGC ((((....)))) ?
56.1 °C

I am curious: what Tm value has been reported for GTGTTGGGAAACCAATAC ((.((((....)))).)) ?
45.7 °C

----------
# Tm values compiled below
Experiment Description: melting temperature; fluorescence melt of hairpins on a sequencing array, two-state fit, raised by 9.35 °C to match UV melts
Condition Summary: sodium 0.088 M
Reply with just the number (in °C).

Illustrative cases are given below, each with its answer.
- Seq Text: "GTATTCCCGAAAGGGTAC (((..(((....))))))"
  Tm (°C): 32.9
- Seq Text: "GCGTTCCCACGC ((((....))))"
  Tm (°C): 51.9
- Seq Text: "GCCCCGACGAAAGTCGGC (((..(((....))))))"
  Tm (°C): 41.1

I am curious: what Tm value has been reported for GCAACTCGAAAGAGATGC (((.(((....))).))) ?
53.8

I am curious: what Tm value has been reported for GATTACGGAAACGTAACC (.(((((....))))).) ?
33.8

I am curious: what Tm value has been reported for GCACAGCGAAAGCTCAGC ((..(((....)))..)) ?
33.9

I am curious: what Tm value has been reported for GTACTCGAAAGAGGATAC ((((((....)))..))) ?
28.5

I am curious: what Tm value has been reported for GCAATCGAAAGATAGTGC ((((((....)))..))) ?
32

I am curious: what Tm value has been reported for GACGTGGGAAACCACGTC (((((((....))))))) ?
68.8

I am curious: what Tm value has been reported for GTGGGCGAAAGCCGGCAC ((((((....)))..))) ?
45.8

I am curious: what Tm value has been reported for GGATGCGAAAGCAGATCC ((((((....)))..))) ?
45.6

I am curious: what Tm value has been reported for GAACGCGGAAACACGTCC (.(((.(....).))).) ?
28.2

I am curious: what Tm value has been reported for GTCATTGGAAACAACGAC (((.(((....))).))) ?
35.5

Taken from the array DNA melting data of Ke et al. (doi:10.1101/2024.01.08.574731).
